The following binders are listed with their measured Mean % WT Binding values.
target: human CD33 variant P48I (human, UniProt P20138 18-364); test: flow cytometry, IgG on cells expressing the mutant
Sequence (P20138 18-364 P48I limits assumed): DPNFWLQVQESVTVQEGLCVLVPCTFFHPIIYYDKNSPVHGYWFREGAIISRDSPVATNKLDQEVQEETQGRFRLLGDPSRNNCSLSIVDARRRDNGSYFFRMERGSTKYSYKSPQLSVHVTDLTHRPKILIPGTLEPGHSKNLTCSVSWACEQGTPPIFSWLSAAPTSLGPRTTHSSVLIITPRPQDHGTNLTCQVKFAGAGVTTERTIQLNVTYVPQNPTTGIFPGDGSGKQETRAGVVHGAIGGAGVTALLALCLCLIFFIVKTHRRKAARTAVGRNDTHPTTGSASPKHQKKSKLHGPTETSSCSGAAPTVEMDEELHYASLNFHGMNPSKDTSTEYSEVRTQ

BINDER	Mean % WT Binding
Refmab #1 (antibody, human IgG1, V domains shown, Tested in IgG format; human IgG1 (Absolute Antibody hP67.6, Cat. No. Ab00283-10.0); also called hP67.6) VH: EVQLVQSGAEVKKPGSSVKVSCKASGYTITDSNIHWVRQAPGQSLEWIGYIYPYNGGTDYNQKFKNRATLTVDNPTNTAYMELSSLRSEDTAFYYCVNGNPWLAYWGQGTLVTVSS VL: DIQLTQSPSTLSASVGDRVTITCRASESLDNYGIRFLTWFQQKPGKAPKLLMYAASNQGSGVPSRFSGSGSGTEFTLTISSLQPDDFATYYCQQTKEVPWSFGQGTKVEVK	107 % of WT
Refmab #2 (antibody, human IgG1, V domains shown, Tested in IgG format; human IgG1 Fc silent (PG-LALA)) VH: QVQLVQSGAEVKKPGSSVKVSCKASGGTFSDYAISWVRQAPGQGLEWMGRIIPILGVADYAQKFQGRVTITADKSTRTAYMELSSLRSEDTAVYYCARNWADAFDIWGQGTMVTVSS VL: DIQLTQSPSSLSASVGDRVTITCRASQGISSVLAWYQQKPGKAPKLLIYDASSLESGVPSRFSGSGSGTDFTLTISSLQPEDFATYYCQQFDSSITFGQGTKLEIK	81.9 % of WT
Refmab #3 (antibody, human IgG1, V domains shown, Tested in IgG format; human IgG1 Fc silent (PG-LALA)) VH: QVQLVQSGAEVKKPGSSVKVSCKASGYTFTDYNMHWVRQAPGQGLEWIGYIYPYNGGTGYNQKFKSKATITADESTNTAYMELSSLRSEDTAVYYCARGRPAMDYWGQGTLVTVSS VL: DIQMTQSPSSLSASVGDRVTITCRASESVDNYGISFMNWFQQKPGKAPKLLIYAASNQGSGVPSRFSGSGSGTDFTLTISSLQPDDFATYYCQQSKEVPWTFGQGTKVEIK	122 % of WT
Refmab #4 (antibody, human IgG1, V domains shown, Tested in IgG format; human IgG1 Fc silent (PG-LALA)) VH: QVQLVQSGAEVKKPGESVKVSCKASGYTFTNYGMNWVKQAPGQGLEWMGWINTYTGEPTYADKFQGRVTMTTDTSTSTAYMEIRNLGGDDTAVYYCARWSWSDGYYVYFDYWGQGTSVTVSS VL: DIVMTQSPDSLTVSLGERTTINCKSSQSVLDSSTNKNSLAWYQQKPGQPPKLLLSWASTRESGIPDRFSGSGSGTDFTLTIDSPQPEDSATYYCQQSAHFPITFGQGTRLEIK	31.9 % of WT
